These measurements were taken from ChEMBL document CHEMBL1158488.

Target: Glucocorticoid receptor (Homo sapiens, UniProt P04150)
Sequence (P04150 whole entry): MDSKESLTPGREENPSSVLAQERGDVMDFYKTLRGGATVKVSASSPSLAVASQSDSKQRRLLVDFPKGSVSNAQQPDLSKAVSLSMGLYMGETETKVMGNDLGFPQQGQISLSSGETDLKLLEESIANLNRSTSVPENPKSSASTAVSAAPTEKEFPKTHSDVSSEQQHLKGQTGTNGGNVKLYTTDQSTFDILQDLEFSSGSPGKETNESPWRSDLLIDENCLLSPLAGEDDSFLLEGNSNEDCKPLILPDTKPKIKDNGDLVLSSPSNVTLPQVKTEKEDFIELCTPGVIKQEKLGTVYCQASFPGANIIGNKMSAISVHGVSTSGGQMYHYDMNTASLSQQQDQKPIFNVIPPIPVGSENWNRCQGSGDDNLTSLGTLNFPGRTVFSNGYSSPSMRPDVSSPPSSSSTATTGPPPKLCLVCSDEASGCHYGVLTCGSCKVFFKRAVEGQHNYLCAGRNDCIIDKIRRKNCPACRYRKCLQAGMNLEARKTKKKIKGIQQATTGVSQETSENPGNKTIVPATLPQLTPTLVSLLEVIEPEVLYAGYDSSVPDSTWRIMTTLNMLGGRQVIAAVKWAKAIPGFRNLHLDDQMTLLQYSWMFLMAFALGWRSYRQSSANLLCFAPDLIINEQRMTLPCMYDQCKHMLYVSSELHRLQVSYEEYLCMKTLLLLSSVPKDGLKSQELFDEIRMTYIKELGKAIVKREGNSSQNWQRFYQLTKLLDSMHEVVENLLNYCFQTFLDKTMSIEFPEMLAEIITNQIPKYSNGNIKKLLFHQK
# key: entry, value: IC50
ENDPOINT_NAME: IC50

>>> result("C[C@@H]1C[C@H]2[C@@H]3CCC4=CC(=O)C=C[C@]4(C)[C@@]3(F)[C@@H](O)C[C@]2(C)[C@@]1(O)C(=O)CSCCNC(=S)NCCCN(C)CCCNC(=O)CCNC(=O)c1cc(NC(=O)c2cc(NC(=O)c3cc(NC(=O)c4cc(NC(=O)c5nccn5C)cn4C)cn3C)cn2C)cn1C")
"16 nM"
>>> result("C[C@H]1C[C@@H]2[C@H]3CCC4=CC(=O)C=C[C@@]4(C)[C@]3(F)[C@H](O)C[C@@]2(C)[C@]1(O)C(=O)NCCNC(=O)c1cc(NC(=O)c2nccn2C)cn1C")
"460 nM"
>>> result("C[C@@H]1C[C@H]2[C@@H]3CCC4=CC(=O)C=C[C@]4(C)[C@@]3(F)[C@@H](O)C[C@]2(C)[C@@]1(O)C(=O)CSCCNC(=S)NCCCN(C)CCCNC(=O)CCNC(=O)c1cc(NC(=O)c2cc(NC(=O)c3cc(NC(=O)c4cc(NC(=O)CCCNC(=O)c5cc(NC(=O)c6cc(NC(=O)c7nccn7C)cn6C)cn5C)cn4C)cn3C)cn2C)cn1C")
"20 nM"
>>> result("C[C@@H]1C[C@H]2[C@@H]3CCC4=CC(=O)C=C[C@]4(C)[C@@]3(F)[C@@H](O)C[C@]2(C)[C@@]1(O)C(=O)CSCCNC(=S)NCCCN(C)CCCNC(=O)CCNC(=O)c1cc(NC(=O)c2cc(NC(=O)c3cc(NC(=O)c4cc(NC(=O)CCCNC(=O)c5cc(NC(=O)c6nccn6C)cn5C)cn4C)cn3C)cn2C)cn1C")
"22 nM"
